Taken from patent US20050101595A1.

Exercise: for every item that follows, state its recorded inhibition at 0.05 µM.
molecular target: CDK2/Cyclin A (Homo sapiens); test: Inhibition of CDK2/Cyclin A Retinoblastoma Kinase Activity; assay type: biochemical; conditions: read-out: % inhibition of CDK2 (@ 0.05 μM), compound at 0.05 μM
# unit: % | format: bare number

Asked: Can you share its inhibition at 0.05 µM? I mean this compound: CN(C)CCCCNCCCS(=O)(=O)N1CCC(Nc2nc(N)c(C(=O)c3c(F)cccc3F)s2)CC1
Given back: 82

Asked: Can you share its inhibition at 0.05 µM? I mean this compound: CN(CCC#N)CCCS(=O)(=O)N1CCC(Nc2nc(N)c(C(=O)c3c(F)cccc3F)s2)CC1
Given back: 82

Asked: Can you share its inhibition at 0.05 µM? I mean this compound: COCCCNCCCS(=O)(=O)N1CCC(Nc2nc(N)c(C(=O)c3c(F)cccc3F)s2)CC1
Given back: 80

Asked: Can you share its inhibition at 0.05 µM? I mean this compound: Nc1nc(NC2CCN(S(=O)(=O)CCCN3CCCCCC3)CC2)sc1C(=O)c1c(F)cccc1F
Given back: 81

Asked: Can you share its inhibition at 0.05 µM? I mean this compound: Nc1nc(NC2CCN(S(=O)(=O)CCCNCCCCO)CC2)sc1C(=O)c1c(F)cccc1F
Given back: 79

Asked: Can you share its inhibition at 0.05 µM? I mean this compound: CCOC(=O)CCNCCCS(=O)(=O)N1CCC(Nc2nc(N)c(C(=O)c3c(F)cccc3F)s2)CC1
Given back: 80

Asked: Can you share its inhibition at 0.05 µM? I mean this compound: C#CCN(C)CCCS(=O)(=O)N1CCC(Nc2nc(N)c(C(=O)c3c(F)cccc3F)s2)CC1
Given back: 79

Asked: Can you share its inhibition at 0.05 µM? I mean this compound: CC(O)CCNCCCS(=O)(=O)N1CCC(Nc2nc(N)c(C(=O)c3c(F)cccc3F)s2)CC1 (stereo not shown)
Given back: 78

Asked: Can you share its inhibition at 0.05 µM? I mean this compound: CC(C)(C)c1cc(NCCCS(=O)(=O)N2CCC(Nc3nc(N)c(C(=O)c4c(F)cccc4F)s3)CC2)no1
Given back: 80

Asked: Can you share its inhibition at 0.05 µM? I mean this compound: Nc1nc(NC2CCN(S(=O)(=O)CCCNCC3CCCO3)CC2)sc1C(=O)c1c(F)cccc1F (stereo not shown)
Given back: 81

---

target: CDK2/Cyclin A (Homo sapiens, UniProt P24941); assay: Inhibition of CDK2/Cyclin A Retinoblastoma Kinase Activity; assay type: biochemical; details: read-out: % inhibition of CDK2 (@ 0.05 μM), compound at 0.05 μM
Property: inhibition at 0.05 µM (%)
# unit: % | format: bare number

Asked: # query: inhibition at 0.05 µM | item Nc1nc(NC2CCN(S(=O)(=O)CCCN(CCO)CCO)CC2)sc1C(=O)c1c(F)cccc1F [Example V78] | system: CDK2/Cyclin A (Homo sapiens, UniProt P24941)
Given back: 80

Asked: # query: inhibition at 0.05 µM | item Nc1nc(NC2CCN(S(=O)(=O)CCCNCC(O)CO)CC2)sc1C(=O)c1c(F)cccc1F (stereo not drawn) [Example V48] | system: CDK2/Cyclin A (Homo sapiens, UniProt P24941)
Given back: 79

Asked: # query: inhibition at 0.05 µM | item Nc1nc(NC2CCN(S(=O)(=O)CCCN3CCC(CCO)CC3)CC2)sc1C(=O)c1c(F)cccc1F [Example V134] | system: CDK2/Cyclin A (Homo sapiens, UniProt P24941)
Given back: 80
